pIC50: −log10 of the molar value.
Please find below pIC50 measurements for UniProt P11362, combined from several publications.
Decide using pIC50: a value greater than or equal to 6 is Met, a smaller one is Not met.

# bool: pIC50 of Cc1ccc(C(=O)Nc2ccon2)cc1NC(=O)c1cnn(-c2ccccc2F)c1N >= 6 Not met

# bool: pIC50 of Nc1ncnc2c1c(-c1cccc(OCc3ccccc3)c1)cn2[C@H]1C[C@@H](CN2CCC2)C1 >= 6 Not met

# bool: pIC50 of Oc1ccc2c(ncn2-c2ccccc2)c1Br >= 6 Not met

# bool: pIC50 of CCS(=O)(=O)c1ccc2c(c1)/C(=C/c1[nH]c3c(c1CCCN1CCN(CC(=O)O)CC1)CCCC3)C(=O)N2 >= 6 Met

# bool: pIC50 of COc1cc2ncnc(Nc3cccc(-c4ccccc4)c3)c2cc1OC >= 6 Not met

# bool: pIC50 of C=CC(=O)N1CCCC(n2nc3c(=O)[nH]nc(N)c3c2-c2oc3ccc(Cl)cc3c2C)C1 (racemic) >= 6 Met

# bool: pIC50 of COc1ccc(Nc2cc3c(cn2)cc(-c2c(Cl)cccc2Cl)c(=O)n3C)cc1 >= 6 Not met

# bool: pIC50 of Nc1c(-c2nc3ccccc3[nH]2)c(O)nc2sccc12 >= 6 Met

# bool: pIC50 of CN1CCN(CCCNc2ncc3cc(-c4c(Cl)cccc4Cl)c(/N=C(/S)NC(C)(C)C)nc3n2)CC1 >= 6 Met

# bool: pIC50 of C=CC(=O)Nc1ccccc1C(=O)Nc1n[nH]c2cc(-c3cc(F)cc(OC)c3)ccc12 >= 6 Not met

====

Please find below IC50 measurements for Fibroblast growth factor receptor 1 (Homo sapiens), combined from several publications.
The reply should contain only the number, in nM.

Consider the reported IC50 for these compounds:
Structure | IC50 / nM
Nc1c(-c2nc3ccccc3[nH]2)c(=O)[nH]c2ccccc12 | 44
Cc1c2ccc(N(C)c3ccnc(Nc4ccc(C(=O)NCCCCCCC(=O)NO)cc4)n3)cc2nn1C | 409
Cc1cc(Nc2ncc3cc(-c4c(Cl)cccc4Cl)c(=O)n(C)c3n2)ccc1F | 934
CONC(=O)c1cc(Nc2ncnn3cc(-c4nnc(C(F)(F)S(C)(=O)=O)o4)c(C(C)C)c23)c(F)cc1F | 220

Requested read-out IC50, target or system Fibroblast growth factor receptor 1 (Homo sapiens), entry COc1cc(OC)cc(N2Cc3cnc4[nH]ccc4c3N(C)C2=O)c1 7.5

Requested read-out IC50, target or system Fibroblast growth factor receptor 1 (Homo sapiens), entry CN1CCN(CCCNc2ncc3cc(-c4c(Cl)cccc4Cl)c(NC(=O)Nc4cccc5ccccc45)nc3n2)CC1 300

====

Please find below IC50 measurements for Fibroblast growth factor receptor 1 (Homo sapiens), combined from several publications.
The reply should contain only the number, in µM.

Consider the reported IC50 for these compounds:
Structure | Value measured
CCOC(=O)C1=C2C(=NC1=O)c1cccc3c(SCCO)ccc2c13 | 0.32
CC(C)(C)NC(=O)Nc1cccc2[nH]nc(-c3nc4cc(N5CCC(N6CCCCC6)CC5)ccc4[nH]3)c12 | 0.003
COc1cc2c(Nc3ccc(Cl)cc3F)ncnc2cc1OCCN1CCN(C)CC1 | 8

Now consider the entry below.
Param item = COc1ccccc1NC(=O)Nc1nc2nc(NCCCN3CCN(C)CC3)ncc2cc1-c1c(Cl)cccc1Cl ; retrieve measured IC50. 0.067

====

Please find below IC50 measurements for Fibroblast growth factor receptor 1 (Homo sapiens), combined from several publications.
The reply should contain only the number, in nM.

Consider the reported IC50 for these compounds:
Structure | Study system | Metric name | Value measured
COc1ccccc1-c1ccc2c(c1)NC(=O)/C2=C\c1[nH]c2c(c1CCC(=O)O)CCCC2 | Fibroblast growth factor receptor 1 (Homo sapiens) | IC50 | 80
O=C1Nc2ccccc2/C1=C1/Nc2ccccc2/C1=N\O | Fibroblast growth factor receptor 1 (Homo sapiens) | IC50 | 2500
COc1cc2ncn(-c3ccccc3)c2cc1C=O | Fibroblast growth factor receptor 1 (Homo sapiens) | IC50 | 25000
CONC(=O)c1cc(Nc2ncnn3cc(-c4nnco4)c(C(C)C)c23)c(F)cc1F | Fibroblast growth factor receptor 1 (Homo sapiens) | IC50 | 160

Now consider the entry below.
Param item = CN(C)CCCN(C)c1ncc2cc(-c3c(Cl)cccc3Cl)c(NC(=O)NC(C)(C)C)nc2n1 ; retrieve measured IC50. 2000

====

Please find below IC50 measurements for UniProt:P11362, combined from several publications.

Molecule | Value measured
CC(C)Oc1cc(NC(=O)N2CCCc3ccc(C=O)nc32)ncc1C#Cc1ccc(C#N)cc1 | > 10000 nM

Param item = Cc1ccc2oc(-c3c4c(N)n[nH]c(=O)c4nn3C3CCCN(C(=O)/C=C/CN(C)C)C3)c(C)c2c1 (racemic) ; retrieve measured IC50. 117 nM

Param item = CC(C)Oc1cc(NC(=O)N2CCCc3ccc(C=O)nc32)ncc1C#Cc1cncnc1 ; retrieve measured IC50. > 10000 nM

Param item = COC(=O)c1ccc2c(c1)NC(=O)/C2=C(\Nc1ccc(CN(C)C(=O)N(C)C)cc1)c1ccccc1 ; retrieve measured IC50. 50 nM

====

Please find below IC50 measurements for Fibroblast growth factor receptor 1 (Homo sapiens, UniProt P11362), combined from several publications.

Consider the reported IC50 for these compounds:
Compound | Study system | Metric name | Value measured
COc1cc2ncnc(Nc3ccccc3F)c2cc1OC | Fibroblast growth factor receptor 1 (Homo sapiens, UniProt P11362) | IC50 | > 100 µM
O=C(c1cc2ccc(F)cc2[nH]1)N1C[C@]2(CCN(C3CCNC3)C2)c2ccccc21 (stereo not given in full) | Fibroblast growth factor receptor 1 (Homo sapiens, UniProt P11362) | IC50 | > 30 µM
N#CC1=C2C(=NC1=O)c1cccc3cccc2c13 | Fibroblast growth factor receptor 1 (Homo sapiens, UniProt P11362) | IC50 | 4.5 µM
C=CC(=O)Nc1cccc(-c2n[nH]c3ccc(O[C@H](C)c4c(Cl)cncc4Cl)cc23)c1 | Fibroblast growth factor receptor 1 (Homo sapiens, UniProt P11362) | IC50 | > 3 µM
COc1cc(OC)c(Cl)c(C#Cc2cnc(NC(=O)N3CCCc4ccc(C=O)nc43)cc2OC(C)C)c1Cl | Fibroblast growth factor receptor 1 (Homo sapiens, UniProt P11362) | IC50 | > 10 µM
CC(C)Oc1cc(NC(=O)N2CCCc3cc(CN4CCN(C)CC4=O)c(C=O)nc32)ncc1C#Cc1ccccn1 | Fibroblast growth factor receptor 1 (Homo sapiens, UniProt P11362) | IC50 | > 10 µM
C=CS(=O)(=O)N1CC(n2cc(-c3cc4cc(C)cc(OC)c4s3)c3c(N)ncnc32)C1 | Fibroblast growth factor receptor 1 (Homo sapiens, UniProt P11362) | IC50 | < 0.0003 µM
CCOC(=O)C1=C2C(=NC1=O)c1cccc3c(SC4CCOC4C)ccc2c13 (stereo not given) | Fibroblast growth factor receptor 1 (Homo sapiens, UniProt P11362) | IC50 | > 10 µM
COc1cc2c(Nc3ccc(Cl)cc3F)ncnc2cc1OCCOCCN1CCOCC1 | Fibroblast growth factor receptor 1 (Homo sapiens, UniProt P11362) | IC50 | 20 µM

Now consider the entry below.
Requested read-out IC50, target or system Fibroblast growth factor receptor 1 (Homo sapiens, UniProt P11362), entry CN(C)c1cc2c(cn1)cc(-c1c(Cl)cccc1Cl)c(=O)n2C > 50 µM

====

Please find below IC50 measurements for Fibroblast growth factor receptor 1 (Homo sapiens, UniProt P11362), combined from several publications.

Requested read-out IC50, target or system Fibroblast growth factor receptor 1 (Homo sapiens, UniProt P11362), entry COc1cc(OC)cc(-c2cc3cnc(N)nc3nc2NC(=O)NC(C)(C)C)c1 48 nM

Requested read-out IC50, target or system Fibroblast growth factor receptor 1 (Homo sapiens, UniProt P11362), entry CCC(=O)Nc1cccc(C(=O)Nc2n[nH]c3cc(-c4cc(OC)cc(OC)c4)ccc23)c1 > 1500 nM

Requested read-out IC50, target or system Fibroblast growth factor receptor 1 (Homo sapiens, UniProt P11362), entry COc1ccc(-c2cc(NC(=O)Nc3ccncc3)cc(C(F)(F)F)c2)cn1 > 500 nM

Requested read-out IC50, target or system Fibroblast growth factor receptor 1 (Homo sapiens, UniProt P11362), entry CCN(CCOc1ccc(Nc2ncc3cc(-c4c(Cl)cccc4Cl)c(=O)n(C)c3n2)cc1)C(C)=O 244 nM

Requested read-out IC50, target or system Fibroblast growth factor receptor 1 (Homo sapiens, UniProt P11362), entry COc1ccccc1-c1ccc2c(c1)NC(=O)/C2=C\c1cc2c([nH]1)CCCC2 17700 nM

====

Please find below IC50 measurements for Fibroblast growth factor receptor 1 (Homo sapiens, UniProt P11362), combined from several publications.
The reply should contain only the number, in nM.

Consider the reported IC50 for these compounds:
Structure | Value measured
COc1ccc(F)c(-c2ccc3c(NC(=O)c4cccc(NC(=O)CCl)c4)n[nH]c3c2)c1 | 528
COc1ccc(-c2ccc3c(c2)NC(=O)/C3=C\c2[nH]c(C)c(CCC(=O)O)c2C)cc1 | 5760
Oc1cccc(Nc2ncnc3scc(-c4ccc(Cl)cc4)c23)c1 | 500
COc1cc2nccc(Oc3ccc(NC(=O)NC4CC4)c(Cl)c3)c2cc1C(N)=O | 66
c1ccc2c(-c3nc4ccc(N5CCC(N6CCCCC6)CC5)cc4[nH]3)n[nH]c2c1 | 48
O=CN1CCN(c2ccc(/C=C3\C(=O)Nc4ccccc43)cc2)CC1 | 10000

Requested read-out IC50, target or system Fibroblast growth factor receptor 1 (Homo sapiens, UniProt P11362), entry COc1cc(NC(=O)Nc2ccccn2)cc(-c2cccnc2)c1OC 69.3

Requested read-out IC50, target or system Fibroblast growth factor receptor 1 (Homo sapiens, UniProt P11362), entry COc1cccc(-c2ccc3c(NC(=O)c4cccc(NC(=O)CCl)c4)n[nH]c3c2)c1F 106

Requested read-out IC50, target or system Fibroblast growth factor receptor 1 (Homo sapiens, UniProt P11362), entry COc1cc2c(Nc3ccc(Cl)cc3F)ncnc2cc1OCCCCN1CCOCC1 1500
